# System: plasma protein
# run_description: Plasma protein binding rate test by equilibrium dialysis method, monkey plasma
# Format: in vitro ADME
# condition_details: 5 μM, equilibrium dialysis 4 hours at 37° C.
measured_metric: Plasma protein binding rate (%) monkey
Numbers only, in %.

CC(/C=C/C=C1\N(CCS(=O)(=O)[O-])c2ccc(S(=O)(=O)[O-])cc2C1(C)C)=C\C=C\C1=[N+](CCS(=O)(=O)[O-])c2ccc(S(=O)(=O)[O-])cc2C1(C)C.[Na+].[Na+].[Na+] [Compound B, reference compound] | 93
CC1(C)C(/C=C/C=C(/C=C/C=C2\N(CCS(=O)(=O)[O-])c3ccc(P(=O)([O-])[O-])cc3C2(C)C)c2ccccc2)=[N+](CCS(=O)(=O)[O-])c2ccc(P(=O)([O-])[O-])cc21.[Na+].[Na+].[Na+].[Na+].[Na+] | 96
CC1(C)C(/C=C/C=C(/C=C/C=C2\N(CCC(=O)[O-])c3ccc(P(=O)([O-])[O-])cc3C2(C)C)c2ccccc2)=[N+](CCC(=O)[O-])c2ccc(P(=O)([O-])[O-])cc21.[Na+].[Na+].[Na+].[Na+].[Na+] | 92

Memo: `CC(/C=C/C=C1\N(CCC(=O)[O-])c2ccc(P(=O)([O-])[O-])cc2C1(C)C)=C\C=C\C1=[N+](CCC(=O)[O-])c2ccc(P(=O)([O-])[O-])cc2C1(C)C.[Na+].[Na+].[Na+].[Na+].[Na+]` , reported Plasma protein binding rate (%) monkey: 91
